test: Single dose oral PK study in male Sprague Dawley rats (plasma by LC-MS/MS); format: in vivo; details: male, Sprague Dawley, rat, in vivo, po, 5 mg/kg, PRX-P5-006 oral 5 mg/kg, mean; read-out: AUClast of PRX-P5-006
Observation type: AUC(0-t) (ng·h/mL)
Answers are plain numbers, in ng·h/mL.

Ask | Consider the compound shown here: CCCCCCCCCCCCCCCCCC(=O)OC(C)OC(=O)N(CC)C1C2CCC(C2)C1c1ccccc1 (single isomer, unassigned) [PRX-P5-006] What is its recorded AUC(0-t)?
Reply | 57.8

---

assay: Single dose intravenous PK study in male Sprague Dawley rats (plasma by LC-MS/MS); type: in vivo; conditions: male, Sprague-Dawley, rat, plasma, iv, 2 mg/kg, PRX-P4-003 IV 2 mg/kg, mean; read-out: AUCinf of PRX-P4-003
Observation type: AUC(0-inf) (ng·h/mL)
Answers are plain numbers, in ng·h/mL.

Ask | Consider the molecule shown here: CCCCCCCCCCCCCCCCCC(=O)OCOC(=O)N(CC)C1C2CCC(C2)C1c1ccccc1 (single isomer, unassigned) [PRX-P4-003] What is its recorded AUC(0-inf)?
Reply | 216

Where do the numbers come from? From patent US10662146B2.
